Test: qHTS of Nrf2 Activators; note: nearly all actives have a fitted effect of over 65% in size
Details: AREc32 ARE-luciferase reporter (MCF7-derived line), luminescence, 24 h; series mostly up to 46.1 µM
The campaign covered roughly 410,000 compounds. About 1,200 (0.29%) were called active. Another 2% or so got no clear call; they are omitted. Calls come from the whole dose curve; as a rule, active = well fitted activation curve with a large enough effect; inconclusive = small, poorly fitted or top-dose-only effect; inactive = flat fitted curve, though single readings scatter. For the sample, actives were picked, then their nearest neighbours and some compounds at random.
The reply should be one of these categories: TRUE = active, FALSE = inactive

Past entries and their recorded results:
Challenge: # lookup: test call for COc1cccc(C(=O)c2sc3nc(-c4ccccc4)cc(C(F)(F)F)c3c2N)c1
Response given: FALSE

Challenge: Tell me the recorded outcome of this test for c1ccc(CSc2nnc(-c3ccco3)c(-c3ccco3)n2)cc1 .
Response given: TRUE

Challenge: Per the assay record, what outcome was assigned to Cc1csc(NC(=O)C2CCN(S(=O)(=O)c3ccccc3)CC2)n1 ?
Response given: FALSE

Challenge: What outcome does the record of this test show for COc1ccc(-n2c(C)nc3c(cnn3-c3ccc(F)cc3)c2=O)cc1 ?
Response given: FALSE

Challenge: Returns: the outcome recorded for Cc1ccc(-n2c3nc(=O)[nH]c(=O)c-3cc3c(Cl)cccc32)cc1 in this assay.
Response given: FALSE

---
Challenge: Look up the recorded call for O=S(=O)(c1ccc(C2CCCCC2)cc1)N1CCN(c2ccc(Cl)c(Cl)c2)CC1 in this test.
Response given: FALSE

Challenge: Short answer needed: outcome of this test for Cc1csc(NC(=O)Nc2ccccc2[N+](=O)[O-])n1 ?
Response given: TRUE

Challenge: Short answer needed: outcome of this test for CCCS(=O)(=O)c1c(Nc2ccccc2C)sc(C(=O)c2ccccc2)c1N ?
Response given: FALSE

Challenge: Any idea what this test logged for Fc1ccc(CSc2nc(NCc3ccccc3)c3ccccc3n2)cc1 ?
Response given: FALSE

Challenge: For this compound, state the assay outcome: COc1ccc(-n2c(=O)c3ccccc3n(Cc3ccccc3Cl)c2=O)cc1
Response given: FALSE
